- target.under.test: T1, PUF4 RNA-binding domain (Saccharomyces cerevisiae, UniProt P25339 537-888)
- T1 sequence: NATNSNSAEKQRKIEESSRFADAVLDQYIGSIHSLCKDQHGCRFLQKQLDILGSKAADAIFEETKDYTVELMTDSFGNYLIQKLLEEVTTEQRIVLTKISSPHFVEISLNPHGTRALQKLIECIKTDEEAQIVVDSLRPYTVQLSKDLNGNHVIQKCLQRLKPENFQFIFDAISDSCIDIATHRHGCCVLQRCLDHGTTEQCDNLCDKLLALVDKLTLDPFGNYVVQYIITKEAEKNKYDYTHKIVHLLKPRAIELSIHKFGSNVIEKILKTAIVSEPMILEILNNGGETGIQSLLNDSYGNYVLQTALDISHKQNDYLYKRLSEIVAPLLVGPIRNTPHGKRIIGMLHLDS
- assay.comment: Mg; RNA-MaP; 20 mM Na-HEPES pH 7.4, 30 mM KOAc, 0.75 mM MgCl2, 0.1% Tween-20, 5% glycerol, 0.1 mg/mL BSA, 2 mM DTT; 25 C; 0.0125-409.6 nM protein
- condition.set: tags: N-His6-TEV cleaved; C-SNAP kept, Cy3B-labelled; label: tethered on chip by stalled RNA polymerase
For each record, write down the corresponding Kd.
Numbers only, in nM.

binder | Kd [nM]
UCUCUUUGUAGCAGUUCUCUU (ssRNA) [Ic_S1_P4E.1_K4.1_C4.1_H4.1_A4.1_[T5G]_[A6C]_[T7A]_F4.1_[T8G]_[A9T]_T4.1] | 1440
ACAAACUGUCUUAUUUACAAAC (ssRNA) [Ib_S3_P5E.1_K5.1_C5.1_H5.1_[A4C]_A5.1_F5.1_[A10T]_T5.1] | 641
UCUCUUUGUAUAAAAAUCUCUU (ssRNA) [Ic_S1_P5E.1_K5.1_C5.1_H5.1_A5.1_[T6A]_F5.1_[T8A]_[T9A]_T5.1] | 42

Let us move to another entry and its Kd.
Quick one: give measured Kd for Ib_S4_P5E.1_K5.1_C5.1_H5.1_A5.1_F5.1_[T9G]_[A10C]_T5.1 (ssRNA) RNA: UUUGACAACUGAUCGUUCUUUCUUGUAUUAUGCUUCUUUCUCGAUCAGUUGUCUUU
37
